# credit: the supplement of paper PMC10567573

assay: protein stability index of a GFP-peptide fusion (GPS, HEK-293T) (PSI 1-6); higher = more stable; conditions: treatment: DMSO; c terminus: a fixed tail appended;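 also: 24-mer peptide tiles fused after GFP, lentivirally expressed, FACS-sorted into six equal bins by GFP/DsRed ratio, decoded by Illumina sequencing, PSI is the read-weighted mean bin number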
Below, each entry is listed alongside its reported protein stability index.
Could you respond with only the numeric value?

For LPNTLLRKDKDVARLQDFQELELV [ANKRD40] the sequence record lists protein stability index as 3.76

For PAAGLDVTQPCGDCGTIQENWVCL [HDAC6] the sequence record lists protein stability index as 2.68

For IAWIKDKLLHIYYQNSIDDRLLVE [PDS5B] the sequence record lists protein stability index as 2.82

For TLGSSFIPGEHFWLLLLTRGLVGV [SPNS1] the sequence record lists protein stability index as 3.15

For TQSVMGFDPLPPSDTIYSYVRPER [TCF25] the sequence record lists protein stability index as 3.52

For SARDCKFTGNFFYNYMMGIEFNPR [DHCR7] the sequence record lists protein stability index as 2.24

For VSATKAEAEKDGVKVPTTLAEYCI [UBE2R2] the sequence record lists protein stability index as 4.5

For ENEKLHQRVEQLTRDLAGLRQFFK [CEBPD] the sequence record lists protein stability index as 3.01

Continuing:
For KHVEYEVSSQRFKSSVYRRYNDFV [SNX8] the sequence record lists protein stability index as 2.35

For SCVIPLRHGGLSLVQTTDFFYPLV [SEPHS2] the sequence record lists protein stability index as 2.42

For LFDMCGISEAQLKDRETSKVIYDF [WASL] the sequence record lists protein stability index as 2.58

For PTSGIVGALMEVMQKRSKAIHSSD [WASL] the sequence record lists protein stability index as 3.14

For MAKFVIRPATAADCSDILRLIKEL [SAT1] the sequence record lists protein stability index as 2.04

For DTVEIREVHERNDGIDPFPLLMNR [EFHC1] the sequence record lists protein stability index as 4.3

For VILGVTNPFFAKTLQHWPHIIRIG [DENND6A] the sequence record lists protein stability index as 2.94

For TYSGKAADVWSLGVMLYTLLVGRY [TRIB1] the sequence record lists protein stability index as 2.42

For THGVGLVLRVEQQPHLPLLSTLAG [SCNN1D] the sequence record lists protein stability index as 2.12

For EMREIRRKLRELQLRNCLRILMGE [BEX3] the sequence record lists protein stability index as 2.35

For IAVLGIVMLKRIHSLYRRTGASFQ [SCAMP3] the sequence record lists protein stability index as 2.34

For ADSGRYRASPTRTAPLPMPEGPEP [ELOA2] the sequence record lists protein stability index as 4.84

For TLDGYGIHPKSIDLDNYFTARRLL [NFE2L1] the sequence record lists protein stability index as 2.37

For AVNRARRPLARPIKPNEILPPEKG [RHOBTB2] the sequence record lists protein stability index as 4.24

For GEYPRWDAWSGSNAYHIERLMSFR [CRYBA1] the sequence record lists protein stability index as 2.17

For LPLLRQTAGKVLAHFYGVKLEGKV [ESRRA] the sequence record lists protein stability index as 2.26

For LVQSSRSEVTELRRVLQGLEIELQ [KRT16] the sequence record lists protein stability index as 3.1

For LGETPENSNLEEPLNPKPHKKKSP [ZNF449] the sequence record lists protein stability index as 5.41

For AHEYIFCFVLGFFYPVMLILFLVI [SOAT2] the sequence record lists protein stability index as 2.98

For KNKKSSTGEASENGLEDIDRILER [TCF25] the sequence record lists protein stability index as 5.22
